Would you mind telling me the reported pIC50 of each entry?
Tested on: p-IKKa levels in L363 (NIK translocated multiple myeloma) cells
Assay Details: Effect of compounds on p-IKKa levels in L363 (NIK translocated multiple myeloma) cells (AlphaLISA SureFire Ultra p-IKKa Ser176/180)
Assay type: cell-based, human
Condition: Homo sapiens, L-363, p-IKKa levels in L363 cells; average if tested more than once; read-out: Assay 2 IC50
pIC50: −log10 of the molar value.

Some entries whose results are on file:
COc1nn(CC(F)F)cc1Nc1nccc(-n2ccc(-c3cncc([C@]4(O)CCN(C)C4=O)c3)n2)n1 (single isomer, unassigned) ... > 7.00
C[C@H](Nc1nccc(-c2csc(-c3cccc([C@]4(O)CCN(C)C4=O)c3)n2)n1)c1cn[nH]c1 (single isomer, unassigned) ... < 6.30
Cc1cc(Nc2nccc(-c3csc(-c4cccc([C@]5(O)CCN(C)C5=O)c4)n3)n2)ccn1 ... 6.30 to 7.00
Cc1cnc(CNc2nccc(-c3csc(-c4cccc([C@]5(O)CCN(C)C5=O)c4)n3)n2)nc1 ... < 6.30

List pIC50 for every entry below, keeping the order given.
1. CN1CCC(O)(c2cncc(-c3csc(-c4ccnc(Nc5ccnn5C)n4)n3)c2)C1=O (single isomer, unassigned)
2. CN1CC[C@@](O)(c2cccc(-c3nc(-c4ccnc(NC5CCCn6nccc65)n4)cs3)c2)C1=O (stereo partly shown)
3. CN1CC[C@@](O)(c2cccc(-c3nc(-c4ccnc(Nc5nc6ccccc6n5C)n4)cs3)c2)C1=O

Given back:
1: > 7.00; 2: < 6.30; 3: < 6.30
